# SYSTEM TESTED: FGF receptor/BKL complex (human, UniProt Q86Z14 1-1044)
# Sequence (Q86Z14 whole entry, one chain of several): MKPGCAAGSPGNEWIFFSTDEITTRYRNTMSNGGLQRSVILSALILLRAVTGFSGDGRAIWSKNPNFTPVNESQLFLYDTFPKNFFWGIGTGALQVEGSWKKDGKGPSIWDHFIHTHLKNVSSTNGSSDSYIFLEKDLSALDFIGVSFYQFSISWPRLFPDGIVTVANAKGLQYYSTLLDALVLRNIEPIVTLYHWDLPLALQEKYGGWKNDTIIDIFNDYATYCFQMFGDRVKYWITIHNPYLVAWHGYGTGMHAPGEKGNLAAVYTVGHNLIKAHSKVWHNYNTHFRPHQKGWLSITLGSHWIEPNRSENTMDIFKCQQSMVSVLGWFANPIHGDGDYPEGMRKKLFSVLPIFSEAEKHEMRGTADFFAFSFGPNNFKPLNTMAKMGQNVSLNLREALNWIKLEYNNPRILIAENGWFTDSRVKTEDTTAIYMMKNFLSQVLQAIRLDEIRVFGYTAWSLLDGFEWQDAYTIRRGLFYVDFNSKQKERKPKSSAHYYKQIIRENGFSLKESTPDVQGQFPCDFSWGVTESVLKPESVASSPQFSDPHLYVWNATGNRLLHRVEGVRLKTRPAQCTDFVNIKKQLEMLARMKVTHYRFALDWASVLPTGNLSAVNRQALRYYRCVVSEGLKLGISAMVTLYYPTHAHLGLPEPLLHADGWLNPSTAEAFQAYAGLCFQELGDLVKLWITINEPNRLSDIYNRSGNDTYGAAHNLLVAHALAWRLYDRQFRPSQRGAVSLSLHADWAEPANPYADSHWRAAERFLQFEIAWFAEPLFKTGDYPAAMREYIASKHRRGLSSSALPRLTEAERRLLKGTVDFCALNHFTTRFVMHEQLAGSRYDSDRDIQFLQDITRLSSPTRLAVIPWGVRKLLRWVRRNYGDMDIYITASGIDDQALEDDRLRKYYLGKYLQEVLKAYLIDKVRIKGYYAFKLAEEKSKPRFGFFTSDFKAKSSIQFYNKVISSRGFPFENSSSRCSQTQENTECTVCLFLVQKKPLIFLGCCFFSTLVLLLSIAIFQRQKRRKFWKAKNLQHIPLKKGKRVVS
# EXPERIMENTAL PROTOCOL: cell-based or functional assay
The binders listed here are annotated with their FGF1 receptor potency [EC50] nM 0.1% HSA.
Could you give me the number in nM? Just the number is fine.

Item S{Beta-26}-[2-[2-[[2-[2-[2-[[2-[2-[2-[[(4S)-4-carboxy-4-(17-carboxyheptadecanoyl-amino)butanoyl]amino]ethoxy]ethoxy]acetyl]amino]ethoxy]ethoxy]acetyl]amino]-eth … (ligand, Cys26 of the GLP-1 part (GLP-1(7-37) numbering; residue 20 of the chain) and Cys180 of the FGF21 part (FGF21(1-181) numbering; residue 228 of the chain) each S-alkylated with substituent Chem. 7) HGEGTFTSDVSSYLEEQAACEFIAWLVKGGGGAQPGAQPGAQPGAQPAHPIPDSSPLLQFGGQVRQRYLYTDDAQQTEAHLEIREDGTVGGAADQSPESLLQLKALKPGVIQILGVKTSRFLCQRPDGALYGSLHFDPEACSFRELLLEDGYNVYQSEAHGLPLHLPGQKSPHRDPAPRGPARFLPLPGLPPALPEPPGILAPQPPDVGSSDPLSLVGPSQGRSPSYCS : provide FGF1 receptor potency [EC50] nM 0.1% HSA
8.97

Find the measured FGF1 receptor potency [EC50] nM 0.1% HSA of S{Beta-27}-[2-[2-[[2-[2-[2-[[2-[2-[2-[[(4S)-4-carboxy-4-(17-carboxyheptadecanoyl-amino)butanoyl]amino]ethoxy]ethoxy]acetyl]amino]ethoxy]ethoxy]acetyl]amino]-eth … (ligand, Cys27 of the GLP-1 part (GLP-1(7-37) numbering; residue 21 of the chain) and Cys180 of the FGF21 part (FGF21(1-181) numbering; residue 228 of the chain) each S-alkylated with substituent Chem. 7) HGEGTFTSDVSSYLEEQAARCFIAWLVKGGGGAQPGAQPGAQPGAQPAHPIPDSSPLLQFGGQVRQRYLYTDDAQQTEAHLEIREDGTVGGAADQSPESLLQLKALKPGVIQILGVKTSRFLCQRPDGALYGSLHFDPEACSFRELLLEDGYNVYQSEAHGLPLHLPGQKSPHRDPAPRGPARFLPLPGLPPALPEPPGILAPQPPDVGSSDPLSLVGPSQGRSPSYCS and report it.
8

Give me measured FGF1 receptor potency [EC50] nM 0.1% HSA, please, for this binder: S{Beta-27}-[2-[2-[[2-[2-[2-[[2-[2-[2-[[(4S)-4-carboxy-4-(17-carboxyheptadecanoyl-amino)butanoyl]amino]ethoxy]ethoxy]acetyl]amino]ethoxy]ethoxy]acetyl]amino]-eth … (ligand, Cys27 of the GLP-1 part (GLP-1(7-37) numbering; residue 21 of the chain) S-alkylated with substituent Chem. 7) HGEGTFTSDVSSYLEEQAARCFIAWLVKGGGGAQPGAQPGAQPGAQPAHPIPDSSPLLQFGGQVRQRYLYTDDAQQTEAHLEIREDGTVGGAADQSPESLLQLKALKPGVIQILGVKTSRFLCQRPDGALYGSLHFDPEACSFRELLLEDGYNVYQSEAHGLPLHLPGQKSPHRDPAPRGPARFLPLPGLPPALPEPPGILAPQPPDVGSSDPLSLVGGSQGRSPSYES
0.43

Kindly consider the entry below.
Item {S27-[(28S)-(28,46-Dicarboxy-2,7,16,25,30-pentaoxo-9,12,18,21-tetraoxa-3,6,15,24,29-pentaazahexatetracontan-1-yl)]-[Gly8,36,Glu22,Cys27]-GLP-1(human)-(7-37)-pep … (ligand, Cys27 of the GLP-1 part (GLP-1(7-37) numbering; residue 21 of the chain) S-alkylated with (28S)-(28,46-Dicarboxy-2,7,16,25,30-pentaoxo-9,12,18,21-tetraoxa-3,6,15,24,29-pentaazahexatetracontan-1-yl) (substituent Chem. 7)) HGEGTFTSDVSSYLEEQAAKCFIAWLVKGGGGAQPGAQPGAQPGAQPGAQPGAQPGAQPGAQPGAQPGAQPGAQPGAQPGAQPGAQPGAQPGAQPGAQPGAQPGAQPGAQPGAQPGAQPGAQPGAQPGAQPGAQPGAQPGAQPGAQPGAQPGAQPGAQPAHPIPDSSPLLQFGGQVRQRYLYTDDAQQTEAHLEIREDGTVGGAADQSPESLLQLKALKPGVIQILGVKTSRFLCQRPDGALYGSLHFDPEACSFRELLLEDGYNVYQSEAHGLPLHLPGQKSPHRDPAPRGPARFLPLPGLPPALPEPPGILAPQPPDVGSSDPLSLVGGSQGRSPSYES : provide FGF1 receptor potency [EC50] nM 0.1% HSA
1.42
